Target: Mitogen-activated protein kinase kinase kinase 3 (Homo sapiens)
Test: modulators of MEKK3-MEK5 PB1 binding, primary screen, biochemical, wildtype MEKK3, multiplex bead flow cytometry, Alexa488-MEK5 (AID 1529);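 note: Alexa488 bead fluorescence after subtracting the streptavidin-only scavenger bead signal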
Conditions: bead-based flow cytometry, Alexa488-MEK5 binding to MEKK3; at 10 µM; actives lie on both sides; 0 = blocked by unlabeled MEK5, 100 = vehicle
The campaign covered roughly 290,000 compounds. About 4,200 (1.4%) were called active.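 Rule for the calls: active = binding response more than 3 SD above or below the average of its plate-row segment, actives on both sides; inconclusive = wells at one plate position flagged as instrument error; inactive = the rest.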 Many of the other results were omitted from the sample, so actives are more common in it than they were.
Classes used: TRUE = active, FALSE = inactive

>  <COMPOUND>
Cc1cc(=O)oc2cc(OC(C)C(=O)NCCc3ccc(S(N)(=O)=O)cc3)ccc12 (configuration not stated)

>  <CAT>
FALSE

$$$$
>  <COMPOUND>
CCOC(=O)c1c(-c2ccccc2)oc2cc(Br)c(O)c(C=O)c12

>  <CAT>
FALSE

$$$$
>  <COMPOUND>
Cc1ccc(NC(=O)CSc2nn3c(=O)c(C)nnc3s2)cc1Cl

>  <CAT>
FALSE

$$$$
>  <COMPOUND>
O=S(=O)(c1ccccc1)N(Cc1cccc(F)c1)c1ccccc1

>  <CAT>
FALSE

$$$$
>  <COMPOUND>
CC1(C)Cc2cccc(OCC(=O)NCc3ccccc3)c2O1

>  <CAT>
FALSE

$$$$
>  <COMPOUND>
CCCCC1(C(=O)OCC)NC(c2ccc(O)cc2)C2C(=O)N(c3ccccc3)C(=O)C21 (configuration not stated)

>  <CAT>
FALSE

$$$$
>  <COMPOUND>
Cc1ccc(S(=O)(=O)N[C@@H](Cc2ccccc2)C(=O)N2CCC(C(=O)N[C@H](C(=O)O)C(C)O)CC2)cc1 (some centres not stated)

>  <CAT>
FALSE

$$$$
>  <COMPOUND>
CCC(=C/c1sc2ccc3ccccc3c2[n+]1C)/C=C1\Sc2ccc3ccccc3c2N1C

>  <CAT>
TRUE

$$$$
>  <COMPOUND>
CC(C)(C)n1nc(Cc2cccc3ccccc23)c(C#N)c1N

>  <CAT>
FALSE

$$$$
>  <COMPOUND>
O=C(Cn1cc(/C=N/NC(=O)c2cccc(C(F)(F)F)c2)c2ccccc21)Nc1ccc(F)cc1

>  <CAT>
FALSE

$$$$
>  <COMPOUND>
COc1cccc(OC)c1C(=O)Nc1ccc(Cc2ccncc2)cc1

>  <CAT>
TRUE

$$$$
>  <COMPOUND>
O=C(NCc1ccccc1)c1onc(CSc2ccncc2)c1C(=O)NCc1ccccc1

>  <CAT>
FALSE

$$$$
>  <COMPOUND>
CC1(C)Cc2cccc(OCC(=O)N3CCN(c4ccc([N+](=O)[O-])cc4)CC3)c2O1

>  <CAT>
TRUE

$$$$
>  <COMPOUND>
CCOC(=O)c1ccc(CS(=O)c2ccc(Cl)cc2)o1 (configuration not stated)

>  <CAT>
FALSE

$$$$
>  <COMPOUND>
CCOC(=O)c1ccccc1NC(=O)c1c(N)n(C)c(=O)[nH]c1=O

>  <CAT>
FALSE

$$$$
>  <COMPOUND>
O=C(Oc1ccc(Br)cc1)c1cccnc1

>  <CAT>
FALSE

$$$$
>  <COMPOUND>
COc1ccc(CCNC(=O)CSCc2ccc(Br)cc2)cc1OC

>  <CAT>
FALSE

$$$$
>  <COMPOUND>
CC1(C)Cc2cccc(OCC(N)=O)c2O1

>  <CAT>
FALSE

$$$$
>  <COMPOUND>
CNC[C@H](CC1CCCCC1)NC[C@H](NCCC1CCCC1)[C@H](C)O

>  <CAT>
FALSE

$$$$
>  <COMPOUND>
Cc1ccc2c(C)c(C(=O)N3CCN(c4ccncc4)CC3)oc2c1C

>  <CAT>
FALSE

$$$$
>  <COMPOUND>
CN(Cc1ccccc1Cl)C(=O)C1CCC(=O)N(CCc2cccc(F)c2)C1 (configuration not stated)

>  <CAT>
FALSE

$$$$
>  <COMPOUND>
CCn1cc(CN2CCC(C(=O)Nc3cccc(-c4cccc(Cl)c4)c3)CC2)c(C)n1

>  <CAT>
FALSE

$$$$

Sourced from PubChem BioAssay AID1529
